# System: Wolbachia pipientis
# ASSAY: Anti-Wolbachia Cell-Based Screen
# Assay type: functional
# Set-up: scale not given: in the data most compounds retested in dose-response had high values
# RUN_PARAMETERS: 5 µM
Among all 48,000 compounds or so, about 13,000 (27%) showed an effect of 50% or more. The list shows a part of the results.

{"MOLECULE": "Cn1cccc1C(=O)N1CCC2(CC1)CCN2S(C)(=O)=O", "Percent Effect [%]": -0.7561}
{"MOLECULE": "Cn1cccc1C(=O)N1CCC(O)(CN2CCc3ccccc3C2)C1 (configuration not stated)", "Percent Effect [%]": 119.3}
{"MOLECULE": "Cc1nc(CN2CCCC(N(C)Cc3cscn3)C2)no1 (configuration not stated)", "Percent Effect [%]": 2.968}
{"MOLECULE": "Cn1cccc1C(=O)N1CCCC2(CCCN2S(C)(=O)=O)C1 (configuration not stated)", "Percent Effect [%]": 2.477}
{"MOLECULE": "CNc1cc2c(nn1)CCN(C(=O)c1ccoc1)C2", "Percent Effect [%]": 3.239}
{"MOLECULE": "Cc1ccc(C(=O)N2CCN(CC(O)c3ccc(F)cc3)CC2)s1 (configuration not stated)", "Percent Effect [%]": -1.791}
{"MOLECULE": "CN(C)CC1(O)CCN(C(=O)c2cnc(CN3CCCC3)s2)C1 (configuration not stated)", "Percent Effect [%]": -12.27}
{"MOLECULE": "CCN(C(=O)COC)C(c1cccnc1)c1cc(C)cc(C)c1 (configuration not stated)", "Percent Effect [%]": 20.72}
{"MOLECULE": "Cc1nc(CN2CCCC(NCc3ccsc3)C2)no1 (configuration not stated)", "Percent Effect [%]": 1.864}
{"MOLECULE": "NC(=O)c1cncc(N2CCN(Cc3cccc4nsnc34)CC2)n1", "Percent Effect [%]": -24.77}
{"MOLECULE": "CN(C(=O)c1ccc[nH]1)C1CC(=O)N(Cc2ccccc2)C1=O (configuration not stated)", "Percent Effect [%]": -8.622}
{"MOLECULE": "Cc1csc(C(=O)N2CCC(O)(CN3CCc4ccccc4C3)C2)c1 (configuration not stated)", "Percent Effect [%]": 114.3}
